- method: Half life to evaluate susceptibility to enzymatic hydrolysis by incubating at 37 degree C in human plasma
- Type: ADME
assay.readout: half-life (min)
Response body: numeric value in min, unit text excluded.

Reported half-life ( H-YLAGLLTMV-NH2 ) = 39.4

----------
- method: Half life to evaluate susceptibility to enzymatic hydrolysis by incubating at 37 degree C in human plasma
- Type: ADME
Residues, ends and D or L forms follow the SMILES beside them. *: point of attachment. X3 = OC[C@H]1O[C@H](*)[C@H](O)[C@H](O)[C@@H]1O
I'd appreciate it if you could supply half-life values for the items below.
# number only, unit min dropped from output

half-life in this record for CSCC[C@H](NC(=O)[C@@H](NC(=O)[C@H](CC(C)C)NC(=O)[C@H](CC(C)C)NC(=O)CNC(=O)[C@H](C)NC(=O)[C@H](CC(C)C)NC(=O)[C@@H](N)Cc1ccc(O)cc1)[C@@H](C)O)C(=O)N[C@@H](C(=O)O)C(C)C : 272

The measured half-life associated with CSCC[C@H](NC(=O)[C@@H](NC(=O)[C@H](CC(C)C)NC(=O)[C@H](CC(C)C)NC(=O)CNC(=O)[C@H](C)NC(=O)[C@H](CC(C)C)NC(=O)[C@@H](N)Cc1ccc(O)cc1)[C@@H](C)O[C@H]1O[C@H](CO)[C@@H](O)[C@@H](O)[C@H]1O)C(=O)N[C@H](C(=O)O)C(C)C (H-YLAGLLT(X3)MV-OH) reads 60.8

The recorded half-life for entry CSCC[C@H](NC(=O)[C@@H](NC(=O)[C@H](CC(C)C)NC(=O)[C@H](CC(C)C)NC(=O)CNC(=O)[C@H](C)NC(=O)[C@H](CC(C)C)NC(=O)[C@@H](N)Cc1ccc(O)cc1)[C@@H](C)O)C(=O)N[C@H](C(=O)O)C(C)C equals 12.7

Given item CSCC[C@@H](NC(=O)[C@@H](NC(=O)[C@H](CC(C)C)NC(=O)[C@H](CC(C)C)NC(=O)CNC(=O)[C@H](C)NC(=O)[C@H](CC(C)C)NC(=O)[C@@H](N)Cc1ccc(O)cc1)[C@@H](C)O)C(=O)N[C@H](C(=O)O)C(C)C , the value recorded as its half-life is 35.8

----------
- method: Half life to evaluate susceptibility to enzymatic hydrolysis by incubating at 37 degree C in culture medium.
- Assay type: ADME
Residues, ends and D or L forms follow the SMILES beside them. *: point of attachment. X3 = OC[C@H]1O[C@H](*)[C@H](O)[C@H](O)[C@@H]1O
assay.readout: half-life

Measured half-life, CSCC[C@H](NC(=O)[C@@H](NC(=O)[C@H](CC(C)C)NC(=O)[C@H](CC(C)C)NC(=O)CNC(=O)[C@H](C)NC(=O)[C@H](CC(C)C)NC(=O)[C@@H](N)Cc1ccc(O)cc1)[C@@H](C)O)C(=O)N[C@H](C(=O)O)C(C)C : 1.37 h

half-life recorded for this molecule, CSCC[C@@H](NC(=O)[C@@H](NC(=O)[C@H](CC(C)C)NC(=O)[C@H](CC(C)C)NC(=O)CNC(=O)[C@H](C)NC(=O)[C@H](CC(C)C)NC(=O)[C@@H](N)Cc1ccc(O)cc1)[C@@H](C)O)C(=O)N[C@H](C(=O)O)C(C)C , is > 6 h

Recorded result, CSCC[C@H](NC(=O)[C@@H](NC(=O)[C@H](CC(C)C)NC(=O)[C@H](CC(C)C)NC(=O)CNC(=O)[C@H](C)NC(=O)[C@H](CC(C)C)NC(=O)[C@@H](N)Cc1ccc(O)cc1)[C@@H](C)O[C@H]1O[C@H](CO)[C@@H](O)[C@@H](O)[C@H]1O)C(=O)N[C@H](C(=O)O)C(C)C (H-YLAGLLT(X3)MV-OH) , half-life: > 6 h

Reported half-life for CSCC[C@H](NC(=O)[C@@H](NC(=O)[C@H](CC(C)C)NC(=O)[C@H](CC(C)C)NC(=O)CNC(=O)[C@H](C)NC(=O)[C@H](CC(C)C)NC(=O)[C@@H](N)Cc1ccc(O)cc1)[C@@H](C)O)C(=O)N(CC(=O)O)C(C)C (HELM PEPTIDE1{Y.L.A.G.L.L.T.M.[CC(C)N(CC(=O)O)[*:1]]}$$$$V2.0) was > 6 h

----------
- method: Half life to evaluate susceptibility to enzymatic hydrolysis by incubating at 37 degree C in culture medium.
- Type: ADME
Residues, ends and D or L forms follow the SMILES beside them.
Please provide measured half-life for the entries that follow.

half-life recorded for this compound, CSCC[C@H](NC(=O)[C@@H](NC(=O)[C@H](CC(C)C)NC(=O)[C@H](CC(C)C)NC(=O)CNC(=O)[C@H](C)NC(=O)[C@H](CC(C)C)NC(=O)[C@@H](N)Cc1ccc(O)cc1)[C@@H](C)O)C(=O)N(C)[C@H](C(=O)O)C(C)C (HELM PEPTIDE1{Y.L.A.G.L.L.T.M.[meV]}$$$$V2.0) , is > 6 h

response.value for CSCC[C@H](NC(=O)[C@@H](NC(=O)[C@H](CC(C)C)NC(=O)[C@H](CC(C)C)NC(=O)CNC(=O)[C@H](C)NC(=O)[C@H](CC(C)C)NC(=O)[C@@H](N)Cc1ccc(O)cc1)[C@@H](C)O)C(=O)N[C@@H](C(=O)O)C(C)C (field: half-life) = > 6 h

----------
Please respond with reported half-life for every item in the list.
- method: Half life to evaluate susceptibility to enzymatic hydrolysis by incubating at 37 degree C in culture medium.
- Assay type: ADME
Residues, ends and D or L forms follow the SMILES beside them.

Recorded half-life (compound CC(C)C[C@H](NC(=O)CNC(=O)[C@H](C)NC(=O)[C@H](CC(C)C)NC(=O)[C@@H](N)Cc1ccc(O)cc1)C(=O)N[C@@H](CC(C)C)C(=O)N[C@H](C(=O)N[C@@H](CC[S+](C)[O-])C(=O)N[C@H](C(=O)O)C(C)C)[C@@H](C)O (some centres undefined) (HELM PEPTIDE1{Y.L.A.G.L.L.T.[CS(=O)CC[C@H](N[*:1])C(=O)[*:2]].V}$$$$V2.0) ): 1.56 h

compound CSCC[C@@H](CN[C@H](C(=O)O)C(C)C)NC(=O)[C@@H](NC(=O)[C@H](CC(C)C)NC(=O)[C@H](CC(C)C)NC(=O)CNC(=O)[C@H](C)NC(=O)[C@H](CC(C)C)NC(=O)[C@@H](N)Cc1ccc(O)cc1)[C@@H](C)O (HELM PEPTIDE1{Y.L.A.G.L.L.T.[CSCC[C@@H](CN[C@H](C(=O)O)C(C)C)N[*:1]]}$$$$V2.0) , half-life observed: > 6 h

// sample CSCC[C@H](NC(=O)[C@@H](NC(=O)[C@H](CC(C)C)NC(=O)[C@H](CC(C)C)NC(=O)CNC(=O)[C@H](C)NC(=O)[C@H](CC(C)C)NC(=O)[C@@H](N)Cc1ccc(O)cc1)[C@@H](C)O)C(=O)N[C@H](CO)C(C)C (HELM PEPTIDE1{Y.L.A.G.L.L.T.M.[CC(C)[C@@H](CO)N[*:1]]}$$$$V2.0) , its half-life was > 6 h

// recorded half-life for CSCCN(CC(=O)N[C@H](C(=O)O)C(C)C)C(=O)[C@@H](NC(=O)[C@H](CC(C)C)NC(=O)[C@H](CC(C)C)NC(=O)CNC(=O)[C@H](C)NC(=O)[C@H](CC(C)C)NC(=O)[C@@H](N)Cc1ccc(O)cc1)[C@@H](C)O (HELM PEPTIDE1{Y.L.A.G.L.L.T.[CSCCN(CC(=O)[*:2])[*:1]].V}$$$$V2.0) : > 6 h
